# assay overview: physchem
property label: pKa

>>> measured_value("CC1CCN(CC(=O)Nc2ncc(Cc3cccc4ccccc34)s2)CC1")
10.6
>>> measured_value("CN(C)CCCN1c2ccccc2CCc2ccc(Cl)cc21")
9.1
>>> measured_value("Cc1ccc(C)c(N2CCN(C3CCCCCC3)CC2)c1")
7.54
>>> measured_value("CCCCNc1ccc(C(=O)OCCN(C)C)cc1")
8.6
>>> measured_value("CC/C(=C(\\c1ccccc1)c1ccc(OCCN(C)C)cc1)c1ccccc1")
10
>>> measured_value("Cc1cccc(-n2ncc(C(=O)Nc3nccs3)c2C2CCNCC2)c1")
9.5
>>> measured_value("CN(C)CCC=C1c2ccccc2C=Cc2ccccc21")
8.24
>>> measured_value("O=C(N[C@H]1CCCC[C@H]1C(=O)O)c1ccccc1")
3.3
>>> measured_value("CN1CCCCC1CCN1c2ccccc2Sc2ccc([S+](C)[O-])cc21 (centres undefined)")
9.5

###

# assay overview: physchem
Entries and their measured pKa follow.
property label: pKa

>>> measured_value("CC(C)(C)c1ccc(C(O)CCCN2CCC(C(O)(c3ccccc3)c3ccccc3)CC2)cc1 (centres undefined)")
8.5
>>> measured_value("Cc1ccc(C)c(N2CCN(C3C4CC5CC(C4)CC3C5)CC2)c1 (centres undefined)")
7.6
>>> measured_value("CCOC(=O)C1=C[C@]2(CC)CCCN3CCc4c(n1c1ccccc41)[C@@H]32")
7.1
>>> measured_value("O=c1[nH]c2ccccc2n1C1CCN(CCCC(c2ccc(F)cc2)c2ccc(F)cc2)CC1 [PIMOZIDE]")
7.45
>>> measured_value("c1cnc(N2CCN(C3CC4CCC3C4)CC2)nc1 (centres undefined)")
8
>>> measured_value("COc1ccc2nc(-c3ccccc3)cc(N)c2c1")
8.7
>>> measured_value("O=C(O)c1ccccc1C(=O)Nc1nc(-c2ccccc2)cs1")
3.4
>>> measured_value("Nc1cc(-c2ccccc2)nc2ccc(Br)cc12")
7.4
>>> measured_value("CC[C@]12CCCN3CCc4c(n(c5ccccc45)[C@@](O)(C(=O)OC)C1)C32 (some centres undefined)")
7.9

Where these numbers come from: ChEMBL document CHEMBL2448811
